Tested on: Plasmodium berghei
experiment_notes: Screen against P. berghei liver stage (PbLuc), transformed with Luciferase, at 10uM
Type: functional, HepG2
run_conditions: tested at 10 uM
Hit rate of the full screen: of about 69,000 compounds, about 8,600 (12%) showed an effect of 50% or more. Many of the other results were omitted from the sample, so strong results are more common in it than they were.
Listed below: INHIBITION values for each entry.
assay_endpoint: INHIBITION (%)

1. Cc1ccc(CN2CCC3(CC2)CN(C(=O)c2cnccn2)CCO3)o1
-14.2
2. O=C1NCCCC12CCN(c1nc3c(c(C(F)(F)F)n1)CCCC3)C2 (configuration not stated)
80.7
3. COc1ccc(CN2CC[C@H]3[C@H](CO[C@H]3CNC(=O)N(C)C)C2)cc1
4.61
4. CCc1nnc2n1CCN(C(C(=O)N(CC)CC)c1ccccc1)C2 (configuration not stated)
19.4
5. CN(C)C(=O)NC[C@@H]1OC[C@H]2CN(Cc3cccc(F)c3)CC[C@H]21
69.6
6. O=C(c1cccnc1)N1C[C@H]2CN(Cc3cccc(F)c3)C(=O)[C@H]2C1
-55.2
7. COCCN1C(=O)[C@]2(CC[C@@H]3CN(Cc4ccccc4F)C[C@@H]32)N=C1C
14.9
